- measurement.protocol: chemical genetic growth profiling, strain panel (AID 1159580);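 also: tested at 20 µM; growth read once vehicle control cultures reached saturation at 30 °C; lower values mean less growth of the strain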
- assay.context: S. cerevisiae deletion strains, growth OD, locus YDR137W, strain rgp1
Among all 5,500 compounds or so, about 2,000 (36%) were called active. Not shown: some 18% with an inconclusive outcome. Rule as the data show it: active = normalized growth mostly below about 0.91 (no sharp cut-off); inconclusive = no clear call, values can overlap the other calls; inactive = mostly above about 0.92. The list shows a part of the results.
Choose one outcome from this list and give only that: active, inactive

Query string: Assay result, entry `COc1cccc2c(C)cc(=O)[nH]c12` — outcome?
Result string: inactive

Query string: Assay result, entry `COc1c2ccoc2cc2oc(=O)ccc12` — outcome?
Result string: active

Query string: Assay result, entry O=C1C=C2C(=CCOC2O)O1 (stereo not given) — outcome?
Result string: active

Query string: Assay result, entry CC(C)c1c(O)ccc2c1CCC1[C@@](C)(C=O)CCC[C@]21C (stereo not given in full) — outcome?
Result string: active

Query string: Assay result, entry `CCCCCC(=O)Cc1cc(O)cc(O)c1C(=O)Oc1cc(CC(=O)CCCCC)c(C(=O)O)c(OC)c1` — outcome?
Result string: active

Query string: Assay result, entry `O=c1cc(-c2ccc(O)cc2)oc2cc(O[C@@H]3O[C@H](CO)[C@@H](O)[C@H](O)[C@H]3O)cc(O)c12` — outcome?
Result string: inactive

Query string: Assay result, entry COc1ccc2c(c1)CCC1C2CCC2(C)C1C[C@@H](O)C2O (stereo not given in full) — outcome?
Result string: inactive

Query string: Assay result, entry `COc1cc(OC)c2ccc(=O)oc2c1` — outcome?
Result string: inactive

Query string: Assay result, entry CC(C)c1c(O)ccc2c1CCC1[C@@](C)(CO)CCC[C@]21C (stereo not given in full) — outcome?
Result string: inactive

Query string: Assay result, entry NS(=O)(=O)c1cc(C2(O)NC(=O)c3ccccc32)ccc1Cl (stereo not given) — outcome?
Result string: inactive

Query string: Assay result, entry `COc1ccc(-c2cc(=O)c3c(O)cc(O[C@H]4O[C@H](CO[C@@H]5O[C@@H](C)[C@H](O)[C@@H](O)[C@H]5O)[C@@H](O)[C@H](O)[C@H]4O)cc3o2)cc1` — outcome?
Result string: inactive

Query string: Assay result, entry CC1O[C@@H](Oc2c(-c3ccc(O)c(O)c3)oc3cc(O)cc(O)c3c2=O)[C@H](O)[C@H](O)[C@H]1O (stereo not given in full) — outcome?
Result string: inactive

Query string: Assay result, entry `COc1ccc(-c2oc3c(CC=C(C)C)c(O[C@@H]4O[C@H](CO)[C@@H](O)[C@H](O)[C@H]4O)cc(O)c3c(=O)c2O[C@@H]2O[C@@H](C)[C@H](O)[C@@H](O)[C@H]2O)cc1` — outcome?
Result string: inactive

Query string: Assay result, entry COC(=O)[C@@]1(C)CCC[C@]2(C)c3ccc(O)c(C(C)C)c3CCC12 (stereo not given in full) — outcome?
Result string: active

Query string: Assay result, entry `COc1cc(OC)c2c(=O)c(O)c(-c3ccc(OC)c(OC)c3)oc2c1` — outcome?
Result string: inactive

Query string: Assay result, entry C[C@@H]1O[C@@H](OC[C@H]2OC(Oc3c(-c4ccc(OCCO)c(OCCO)c4)oc4cc(OCCO)cc(O)c4c3=O)[C@H](O)[C@@H](O)[C@@H]2O)[C@H](O)[C@H](O)[C@H]1O (stereo not given in full) — outcome?
Result string: inactive

Query string: Assay result, entry `O=c1ccc2c(O)c3ccoc3cc2o1` — outcome?
Result string: inactive

Query string: Assay result, entry `COc1cc(OC)c2c(=O)c(OC)c(-c3ccc(OC)c(OC)c3)oc2c1` — outcome?
Result string: inactive

Query string: Assay result, entry C[C@]12CCC3c4ccc(O)cc4CCC3C1C[C@@H](O)[C@@H]2O (stereo not given in full) — outcome?
Result string: inactive

Query string: Assay result, entry `COc1ccc2ccc(=O)oc2c1` — outcome?
Result string: inactive
